Tested on: CCRIS mutagenicity, Ames/micronucleus/aberration tests
EXPERIMENT NOTES: CCRIS mutagenicity studies
PARTICULARS: Test System: AMES SALMONELLA TYPHIMURIUM; Strain/Indicator: TA100; Metabolic Activation: NONE; Method: STANDARD PLATE
The source made the active and inactive calls. The rule behind the calls is not given here.
The categories you may choose from are active, inactive

| COMPOUND | GROUP LABEL |
| --- | --- |
| O=C1C=C(Cl)C(=O)C1(Cl)Cl | active |
| NC(=O)c1ccc(N)cc1 | inactive |
| COc1cccc2c1cc1c3c(cc4c(c32)OCO4)C(=O)N1 | inactive |
| C\C=C(/C=C(C)/C=C(C)/C=C/C=C(\C)C(=O)[C@]12O[C@H]1[C@@](O)(CCO)NC2=O)C(=O)OC | inactive |
| CC(C)=CCC1=C(O)c2ccccc2C(=O)C1=O | inactive |

Hi team, can someone confirm the assay call for COC(=O)Nc1nc2ccc(/C(=N/O)c3ccc(F)cc3)cc2[nH]1 ?
inactive

What was the test verdict on c1ccc(CCC2CO2)cc1 (stereo not drawn) ?
active

Recorded call for CCCCCCCCCCCCOC(=O)CCSCCC(=O)OCCCCCCCCCCCC ?
inactive

----------
Tested on: CCRIS mutagenicity, Ames/micronucleus/aberration tests
EXPERIMENT NOTES: CCRIS mutagenicity studies
PARTICULARS: Test System: AMES SALMONELLA TYPHIMURIUM; Strain/Indicator: TA100; Metabolic Activation: NONE; Method: PREINCUBATION
Active and inactive are the calls of the source. No rule for the calls is given here.
Form entry, call: pick from y for active, n for inactive

Here's what some known entries look like.
| SMILES NOTATION | GROUP LABEL |
| --- | --- |
| Nn1nnc2c([nH]c3ccccc32)c1=O | y |
| O=C(O)c1cccc(Cl)c1 | n |
| CCOC(N)=O | n |
| CCCCCCCCn1sccc1=O | n |

Name the outcome recorded for CCCCCCCCC in the assay.
n

Any idea what this test logged for Nc1cccc(S(=O)(=O)O)c1 ?
n

Recorded test outcome, item Oc1ccc(Cl)cc1Cl
n

----------
Test system: CCRIS mutagenicity, Ames/micronucleus/aberration tests
EXPERIMENT NOTES: CCRIS mutagenicity studies
PARTICULARS: Test System: AMES SALMONELLA TYPHIMURIUM; Strain/Indicator: TA98; Metabolic Activation: RAT, LIVER, S-9, PCB; Method: PREINCUBATION
Active and inactive are the calls of the source. The rule behind the calls is not given here.
OBSERVABLE: mutagenic call

Solved entries (count: 4):
| COMPOUND | mutagenic call |
| --- | --- |
| C[C@H](CCC(=O)O)[C@H]1CC[C@H]2[C@@H]3CC[C@@H]4CC(=O)CC[C@]4(C)[C@H]3C[C@@H](O)[C@]12C | inactive; negative |
| Clc1nncc2ccccc12 | inactive; negative |
| Cc1ccc2c(c1O)C(=O)c1ccccc1C2=O | active; positive |
| Nc1ccc(Cc2ccc(N)cc2)cc1 | active; positive |

Give the measured mutagenic call of Clc1nncc2ccncc12 .
inactive; negative

Sample C=C1C[C@@]23CC[C@H]4[C@@](C)(CCC[C@@]4(C)C(=O)O[C@@H]4O[C@H](CO)[C@@H](O)[C@H](O)[C@H]4O)[C@@H]2CC[C@]1(O[C@@H]1O[C@H](CO)[C@@H](O)[C@H](O)[C@H]1O[C@@H]1O[C@H](CO)[C@@H](O)[C@H](O)[C@H]1O)C3 — what was its mutagenic call?
inactive; negative

Please report the recorded mutagenic call for O=C1c2ccccc2C(=O)c2c1cc(O)c(CO)c2O .
active; positive

For O=C(O)c1ccc(/C=C/c2ccc([N+](=O)[O-])o2)cc1 , what is its reported mutagenic call?
active; positive

Fill blank: measured mutagenic call of the compound O=C1c2ccccc2C(=O)c2c(O)cc(O)cc21 is ____.
active; positive

Which mutagenic call reading was recorded for the compound NCCNCCN ?
inactive; negative

What measured mutagenic call goes with Nc1ncnc2c1ncn2Cc1ccc([N+](=O)[O-])cc1 ?
inactive; negative

Fill in: mutagenic call of Nc1ncnc2c1ncn2-c1ccc([N+](=O)[O-])cc1[N+](=O)[O-] is ___
inactive; negative

I am curious: what mutagenic call value has been reported for O=C1c2cccc(O)c2C(=O)c2c(O)cc(CO)cc21 ?
inactive; negative

GET /values?readout=mutagenic call&item= C[C@H](CCC(=O)O)[C@H]1CC[C@H]2[C@@H]3C(=O)C[C@@H]4C[C@H](O)CC[C@]4(C)[C@H]3CC[C@]12C
inactive; negative

I would be grateful if you could share the reported mutagenic call for Nc1nc(-c2ccc([N+](=O)[O-])cc2)nc2nc[nH]c12 .
active; positive

May I ask what mutagenic call has been recorded for Nc1nc(-c2ccc([N+](=O)[O-])cc2)nc2c1ncn2[C@@H]1O[C@H](CO)[C@@H](O)[C@H]1O ?
active; positive

Item under review: Cc1ccc(N)cc1[N+](=O)[O-] . Reported mutagenic call?
inactive; negative

Given the entry CCSc1cc(Cc2ccc(N)c(SCC)c2)ccc1N , report its measured mutagenic call.
active; positive

# mutagenic call lookup, item Nc1ccc(Oc2ccccc2)cc1
active; positive

So what's the measured mutagenic call for this one? CC(C)(C)C(=O)C(Oc1ccc(Cl)cc1)n1ccnc1 (stereo not given)
inactive; negative

----------
Tested on: CCRIS mutagenicity, Ames/micronucleus/aberration tests
EXPERIMENT NOTES: CCRIS mutagenicity studies
PARTICULARS: Test System: AMES SALMONELLA TYPHIMURIUM; Strain/Indicator: TA100; Metabolic Activation: RAT, LIVER, S-9, AROCLOR 1254; Method: STANDARD PLATE
Excerpt: The CCRIS database contains chemical records with carcinogenicity, mutagenicity, tumor promotion, and tumor inhibition test results. It was developed by the National Cancer Institute (NCI). Data are derived from studies cited in primary journals, current awareness tools, NCI reports, and other sources. Test results have been reviewed by experts in carcinogenesis and mutagenesis. CCRIS provides historical information from the years 1985 - 2011. It is no longer updated. […]
The source made the active and inactive calls. No rule for the calls is given here.
Entry note: the call must match one of 1 (yes) for active, 0 (no) for inactive

Here's what some known entries look like.
| COMPOUND | GROUP LABEL |
| --- | --- |
| CCNc1nc(Cl)nc(NC(C)C)n1 | 0 (no) |
| C[C@H](CCC(=O)O)[C@H]1CC[C@H]2[C@@H]3[C@@H](O)C[C@@H]4C[C@H](O)CC[C@]4(C)[C@H]3CC[C@]12C | 0 (no) |
| CN(C)c1ccc([C@H]2C[C@@]3(C)[C@@H](CC[C@@]3(O)/C=C\CO)[C@@H]3CCC4=CC(=O)CCC4=C32)cc1 | 0 (no) |
| O=C(c1ccccc1)C1OC1c1ccc([N+](=O)[O-])cc1 (stereo unspecified) | 0 (no) |
| O[C@@H]1C2=c3c(cc4cccc5ccc(c3c54)[C@H]1O)-c1ccccc12 | 0 (no) |
| CN(C)c1ccc(C(=N)c2ccc(N(C)C)cc2)cc1 | 0 (no) |

Kindly provide the recorded test outcome for the following compound: O=C(O)O
0 (no)

Record lookup: outcome of this test for CCOC(=O)C1OC1c1ccccc1 (stereo unspecified) ?
1 (yes)

Tell me the assay call for CC(C)(C)OC(=O)O/N=C(/C#N)c1ccccc1 please.
0 (no)

Which outcome was assigned to CCOC(=O)c1[nH]c2ccccc2c1N=Cc1ccc(C)cc1 in this test?
0 (no)

Assay outcome for COc1cc(N=Nc2ccc(N(CCO)CCO)cc2)ccc1N=Nc1c(S(=O)(=O)O)cc2ccc(N)cc2c1O : what was it?
0 (no)

----------
Test system: CCRIS mutagenicity, Ames/micronucleus/aberration tests
EXPERIMENT NOTES: CCRIS mutagenicity studies
PARTICULARS: Test System: E. COLI; Strain/Indicator: WP2 UVRA; Metabolic Activation: NONE; Method: STANDARD PLATE
The source made the active and inactive calls. How the calls were made is not given here.
Mark one answer only. Choices: active, inactive

| COMPOUND | SYSTEM TESTED | GROUP LABEL |
| --- | --- | --- |
| COc1cccc(C=O)c1O | CCRIS mutagenicity, Ames/micronucleus/aberration tests | inactive |
| O=C1c2ccccc2C(=O)N1SC(Cl)(Cl)Cl | CCRIS mutagenicity, Ames/micronucleus/aberration tests | active |
| O=C1c2c(O)cccc2Cc2cccc(O)c21 | CCRIS mutagenicity, Ames/micronucleus/aberration tests | inactive |
| CCN(CC)CC#CC(C)(C)OC(=O)C(O)(c1ccccc1)C1CCCCC1 (centres undefined) | CCRIS mutagenicity, Ames/micronucleus/aberration tests | inactive |

Then there is this compound:
Fill in: this test's call for Cc1cccn2c(=O)c(-c3nnn[nH]3)cnc12 is ___
inactive

----------
Test system: CCRIS mutagenicity, Ames/micronucleus/aberration tests
EXPERIMENT NOTES: CCRIS mutagenicity studies
PARTICULARS: Test System: AMES SALMONELLA TYPHIMURIUM; Strain/Indicator: YG1024; Metabolic Activation: NONE; Method: PREINCUBATION
The source made the active and inactive calls. The rule behind the calls is not given here.
Allowed answers: active, inactive

Field: example entries. Status: answers known.
| SMILES NOTATION | GROUP LABEL |
| --- | --- |
| O=NO | inactive |
| Cc1cccn2c1nc1ccc(NO)nc12 | active |
| Nc1nc(-c2ccc([N+](=O)[O-])cc2)nc2nc[nH]c12 | active |

Then there is this compound:
I'd appreciate the recorded outcome for Nc1nc(-c2ccc([N+](=O)[O-])cc2)nc2c1ncn2[C@@H]1O[C@H](CO)[C@@H](O)[C@H]1O from this test.
active

Origin of measurements: PubChem BioAssay AID1259407
